# Test system: MKN-74
# procedure details: Growth inhibition of human MKN74 cells after 72 hrs by Cell-Titer Glo assay
# Type: functional
# condition context: MKN-74, 72 h

molecule	GI50
CC[C@H](C)[C@H]1C(=O)N2CCC[C@H]2C(=O)O[C@H](C(C)(C)C)C[C@@H](C)C[C@H](O)[C@H](C)C(=O)N2CCC(CC2)C(=O)N[C@@H](Cc2ccc(-c3ccccc3)cc2)C(=O)N(C)[C@@H](C)C(=O)N1C	8 nM
CC[C@H](C)[C@H]1C(=O)N2CCC[C@H]2C(=O)O[C@H](C(C)(C)C)C[C@@H](C)C[C@H](O)[C@H](C)C(=O)N2CCC(CC2)C(=O)N[C@@H](Cc2ccc(Cl)cc2)C(=O)N(C)[C@@H](C)C(=O)N1C	200 nM
CC[C@H](C)[C@H]1C(=O)N2CCC[C@H]2C(=O)O[C@H](C(C)(C)C)C[C@@H](C)C[C@H](O)[C@H](C)C2=N[C@@H](/C=C(\C)C(=O)N[C@@H](Cc3ccc(OC)cc3)C(=O)N(C)[C@@H](C)C(=O)N1C)CS2 [APRATOXIN A]	9.7 nM
CO[C@@]12[C@H](COC(N)=O)C3=C(C(=O)C(C)=C(N)C3=O)N1C[C@@H]1N[C@@H]12 [MITOMYCIN]	1700 nM

###

Below, each of the compounds is paired with its reported GI50 value.
# Test system: SK-OV-3
# procedure details: Growth inhibition of human SKOV3 cells after 72 hrs by Cell-Titer Glo assay
# Type: functional
# condition context: SK-OV-3, 72 h

chemical string	tested system	GI50 (nM)
CC[C@H](C)[C@H]1C(=O)N2CCC[C@H]2C(=O)O[C@H](C(C)(C)C)C[C@@H](C)C[C@H](O)[C@H](C)C2=N[C@@H](/C=C(\C)C(=O)N[C@@H](Cc3ccc(OC)cc3)C(=O)N(C)[C@@H](C)C(=O)N1C)CS2	SK-OV-3	31
CC[C@H](C)[C@H]1C(=O)N2CCC[C@H]2C(=O)O[C@H](C(C)(C)C)C[C@@H](C)C[C@H](O)[C@H](C)C(=O)N2CCC(CC2)C(=O)N[C@@H](Cc2ccc(-c3ccccc3)cc2)C(=O)N(C)[C@@H](C)C(=O)N1C	SK-OV-3	18
CO[C@@]12[C@H](COC(N)=O)C3=C(C(=O)C(C)=C(N)C3=O)N1C[C@@H]1N[C@@H]12	SK-OV-3	100
CC[C@H](C)[C@H]1C(=O)N2CCC[C@H]2C(=O)O[C@H](C(C)(C)C)C[C@@H](C)C[C@H](O)[C@H](C)C(=O)N2CCC(CC2)C(=O)N[C@@H](Cc2ccc(Cl)cc2)C(=O)N(C)[C@@H](C)C(=O)N1C	SK-OV-3	410

###

# procedure details: Drug metabolism in human liver microsomes after 35 mins in presence of NADPH by LC-MS/MS analysis
# Assay type: ADME, microsome
# condition context: read-out: Drug metabolism

chemical string	unit of measure	metabolised at 35 min
CC[C@H](C)[C@H]1C(=O)N2CCC[C@H]2C(=O)O[C@H](C(C)(C)C)C[C@@H](C)C[C@H](O)[C@H](C)C(=O)N2CCC(CC2)C(=O)N[C@@H](Cc2ccc(-c3ccccc3)cc2)C(=O)N(C)[C@@H](C)C(=O)N1C	%	85

###

# Test system: HCT-116
# procedure details: Cytotoxicity against human HCT116 cells assessed as reduction in cell viability after 48 hrs by WST8 assay
# Type: functional, cell-based
# condition context: HCT-116, 48 h
We begin with a simple list: items and their reported IC50.

chemical string	IC50 [nM]
COc1ccc(C[C@@H]2NC(=O)C3CCN(CC3)C(=O)[C@@H](C)[C@@H](O)C[C@H](C)C[C@@H](C(C)(C)C)OC(=O)[C@@H]3CCCN3C(=O)[C@H](C(C)C)N(C)C(=O)[C@H](C)N(C)C2=O)cc1	130
CC[C@H](C)[C@H]1C(=O)N2CCC[C@H]2C(=O)O[C@H](C(C)(C)C)C[C@@H](C)C[C@H](O)[C@H](C)C(=O)N2CCC(CC2)C(=O)N[C@@H](Cc2ccc(OC)cc2)C(=O)N(C)[C@@H](C)C(=O)N1C	120
CC[C@H](C)[C@H]1C(=O)N2CCC[C@H]2C(=O)O[C@H](C(C)(C)C)C[C@@H](C)C[C@H](O)[C@H](C)C(=O)NCCC(=O)N[C@@H](Cc2ccc(OC)cc2)C(=O)N(C)[C@@H](C)C(=O)N1C	3400
CC[C@H](C)[C@H]1C(=O)N2CCC[C@H]2C(=O)O[C@H](C(C)(C)C)C[C@@H](C)C[C@H](O)[C@H](C)C2=N[C@@H](/C=C(\C)C(=O)N[C@@H](Cc3ccc(OC)cc3)C(=O)N(C)[C@@H](C)C(=O)N1C)CS2	2.8
COc1ccc(C[C@@H]2NC(=O)C3CCN(CC3)C(=O)[C@@H](C)[C@@H](O)C[C@H](C)C[C@@H](C(C)(C)C)OC(=O)[C@@H]3CCCN3C(=O)[C@H](C)N(C)C(=O)[C@H](C)N(C)C2=O)cc1	7500
COc1ccc(C[C@@H]2NC(=O)C3CCN(CC3)C(=O)[C@@H](C)[C@@H](O)C[C@H](C)C[C@@H](C(C)(C)C)OC(=O)[C@@H]3CCCN3C(=O)[C@H](Cc3ccccc3)N(C)C(=O)[C@H](C)N(C)C2=O)cc1	710
CC[C@H](C)[C@H]1C(=O)N2CCC[C@H]2C(=O)O[C@H](C(C)(C)C)C[C@@H](C)C[C@H](O)[C@H](C)C(=O)N(C)CCCC(=O)N[C@@H](Cc2ccc(OC)cc2)C(=O)N(C)[C@@H](C)C(=O)N1C	340
CC[C@H](C)[C@H]1C(=O)N2CCC[C@H]2C(=O)O[C@H](C(C)(C)C)C[C@@H](C)C[C@H](O)[C@H](C)C(=O)NCCCC(=O)N[C@@H](Cc2ccc(OC)cc2)C(=O)N(C)[C@@H](C)C(=O)N1C	2600
CC[C@H](C)[C@H]1C(=O)N2CCC[C@H]2C(=O)O[C@H](C(C)(C)C)C[C@@H](C)C[C@H](O)[C@H](C)C(=O)N(C)Cc2cccc(c2)C(=O)N[C@@H](Cc2ccc(OC)cc2)C(=O)N(C)[C@@H](C)C(=O)N1C	220

###

# procedure details: Growth inhibition of human HEC6 cells after 72 hrs by Cell-Titer Glo assay
# Type: functional
# condition context: HEC-6, 72 h
Quick list: GI50 per entry.

chemical string	unit of measure	GI50
CC[C@H](C)[C@H]1C(=O)N2CCC[C@H]2C(=O)O[C@H](C(C)(C)C)C[C@@H](C)C[C@H](O)[C@H](C)C(=O)N2CCC(CC2)C(=O)N[C@@H](Cc2ccc(-c3ccccc3)cc2)C(=O)N(C)[C@@H](C)C(=O)N1C	nM	23
CC[C@H](C)[C@H]1C(=O)N2CCC[C@H]2C(=O)O[C@H](C(C)(C)C)C[C@@H](C)C[C@H](O)[C@H](C)C(=O)N2CCC(CC2)C(=O)N[C@@H](Cc2ccc(Cl)cc2)C(=O)N(C)[C@@H](C)C(=O)N1C	nM	480
CC[C@H](C)[C@H]1C(=O)N2CCC[C@H]2C(=O)O[C@H](C(C)(C)C)C[C@@H](C)C[C@H](O)[C@H](C)C2=N[C@@H](/C=C(\C)C(=O)N[C@@H](Cc3ccc(OC)cc3)C(=O)N(C)[C@@H](C)C(=O)N1C)CS2	nM	39
CO[C@@]12[C@H](COC(N)=O)C3=C(C(=O)C(C)=C(N)C3=O)N1C[C@@H]1N[C@@H]12	nM	1400

###

# procedure details: Drug metabolism in mouse liver microsomes after 35 mins in presence of NADPH by LC-MS/MS analysis
# Format: ADME, microsome
# condition context: read-out: Drug metabolism

chemical string	unit of measure	metabolised at 35 min
CC[C@H](C)[C@H]1C(=O)N2CCC[C@H]2C(=O)O[C@H](C(C)(C)C)C[C@@H](C)C[C@H](O)[C@H](C)C(=O)N2CCC(CC2)C(=O)N[C@@H](Cc2ccc(-c3ccccc3)cc2)C(=O)N(C)[C@@H](C)C(=O)N1C	%	84

###

# Test system: HCT-116
# procedure details: Cytotoxicity against human HCT116 cells assessed as reduction in cell viability after 48 hrs by WST8 assay
# Format: functional, cell-based
# condition context: HCT-116, 48 h
pIC50: −log10 of the molar value.

chemical string	tested system	pIC50
CC[C@H](C)[C@H]1C(=O)N2CCC[C@H]2C(=O)O[C@H](C(C)(C)C)C[C@@H](C)C[C@H](O)[C@H](C)C(=O)N2CCC(CC2)C(=O)N[C@@H](Cc2ccc(Cl)cc2)C(=O)N(C)[C@@H](C)C(=O)N1C	HCT-116	7.16
CC[C@H](C)[C@H]1C(=O)N2CCC[C@H]2C(=O)O[C@H](C(C)(C)C)C[C@@H](C)C[C@H](O)[C@H](C)C(=O)N2CCC(CC2)C(=O)N[C@@H](Cc2ccc(OC)cc2)C(=O)N(C)[C@@H](Cc2ccccc2)C(=O)N1C	HCT-116	5.80
CC[C@H](C)[C@H]1C(=O)N2CCC[C@H]2C(=O)O[C@H](C(C)(C)C)C[C@@H](C)C[C@H](O)[C@H](C)C(=O)N(C)CCC(=O)N[C@@H](Cc2ccc(OC)cc2)C(=O)N(C)[C@@H](C)C(=O)N1C	HCT-116	5.51
CC[C@H](C)[C@H]1C(=O)N2CCC[C@H]2C(=O)O[C@H](C(C)(C)C)C[C@@H](C)C[C@H](O)[C@H](C)C(=O)N2CCC(CC2)C(=O)N[C@@H](Cc2ccc(OC)cc2)C(=O)N(C)[C@@H](CC(C)C)C(=O)N1C	HCT-116	6.44
